Values from ChEMBL document CHEMBL1132818

- Tgt: GABA-A receptor; anion channel (Rattus norvegicus) (UniProt O09028+P15431+P18506+P18508+P19969+P20236+P23574+P23576+P28471+P28473+P30191+P62813+P63079+P63138+Q91ZM7+Q9ES14)
- Method summary: In vitro displacement of [35S]TBPS from Gamma-aminobutyric acid A receptor of rat brain membrane preparations at 100 uM
Property measured: Displacement
Kindly report the value followed by its unit.

Some solved cases for reference:
| Query smiles | Displacement |
| --- | --- |
| CN1CCc2cc3c(cc2[C@H]1[C@@H]1OC(=O)c2c1ccc1c2OCO1)OCO3 | -1% |
| O=C1C=C[C@@H]([C@@H]2c3ccccc3CCN2C(=O)OCc2ccccc2)O1 | 82% |
| O=C1CC[C@@H]([C@@H]2c3ccccc3CCN2C(=O)OCc2ccccc2)O1 | 82% |
| COc1cc2c(cc1OC)[C@@H]([C@@H]1C=C(C)C(=O)O1)N(C)CC2 | 2% |
| COc1cc2c(cc1OC)[C@@H]([C@@H]1C=C(C)C(=O)O1)N(C(=O)OCc1ccccc1)CC2 | 11% |
| COc1cc2c(cc1OC)[C@@H]([C@@H]1C=CC(=O)O1)N(C(=O)OCc1ccccc1)CC2 | 47% |
| COc1cc2c(cc1OC)[C@@H]([C@H]1C=C(C)C(=O)O1)N(C)CC2 | 4% |
| O=C1C=C[C@H]([C@@H]2c3ccccc3CCN2C(=O)OCc2ccccc2)O1 | 85% |
| CC1=C[C@@H]([C@@H]2c3cc4c(cc3CCN2C)OCO4)OC1=O | 3% |
| COc1cc2c(cc1OC)[C@@H]([C@H]1C=C(C)C(=O)O1)N(C(=O)OCc1ccccc1)CC2 | 63% |

Below are 2 molecules. Give each one its Displacement.
1. COc1cc2c(cc1OC)[C@@H]([C@H]1C=CC(=O)O1)N(C(=O)OCc1ccccc1)CC2
2. CC1=C[C@H]([C@@H]2c3cc4c(cc3CCN2C)OCO4)OC1=O

### Response
1: 50%; 2: 3%

----------
Assign Displacement to each entry below.
- Tgt: GABA-A receptor; anion channel (Rattus norvegicus) (UniProt O09028+P15431+P18506+P18508+P19969+P20236+P23574+P23576+P28471+P28473+P30191+P62813+P63079+P63138+Q91ZM7+Q9ES14)
- Method summary: Displacement of [3H]flunitrazepam from GABA-A receptor of rat brain membrane preparations at 10 uM
Numbers only, in %.

See these solved cases before continuing.
| Query smiles | Unit annotation | Displacement |
| --- | --- | --- |
| O=C1C=C[C@H]([C@@H]2c3cc4c(cc3CCN2C(=O)OCc2ccccc2)OCO4)O1 | % | 27 |
| O=C1CC[C@@H]([C@@H]2c3ccccc3CCN2C(=O)OCc2ccccc2)O1 | % | 96 |

Record Displacement per entry; entries follow.
1. CC1=C[C@H]([C@@H]2c3ccccc3CCN2C(=O)OCc2ccccc2)OC1=O
2. COc1cc2c(cc1OC)[C@@H]([C@@H]1C=CC(=O)O1)N(C(=O)OCc1ccccc1)CC2
3. O=C1C=C[C@H]([C@@H]2c3ccccc3CCN2C(=O)OCc2ccccc2)O1

### Response
1. 27
2. 5
3. 51

----------
Would you mind telling me the reported GABA current of each entry?
- Tgt: GABA-A receptor; alpha-1/beta-2/gamma-2 (Rattus norvegicus) (UniProt P18508+P62813+P63138)
- Method summary: Percent GABA current elicited in Xenopus laevis oocytes expressing rat GABA-A alpha-1-beta-2-gamma-2 subunits at 100 uM [(-)inhibition, (+)stimulation]
- Assay type: functional, cell-based
- Experimental conditions: Oocyte
One number for each entry, in %.

Known results for compounds:
| Query smiles | Property measured | Unit annotation | Result value |
| --- | --- | --- | --- |
| COc1cc2c(cc1OC)[C@@H]([C@H]1C=C(C)C(=O)O1)N(C)CC2 | GABA current | % | -10 |
| O=C1C=C[C@@H]([C@@H]2c3ccccc3CCN2C(=O)OCc2ccccc2)O1 | GABA current | % | 281 |

Hey, quick one: what's GABA current for each of these?
1. COc1cc2c(cc1OC)[C@@H]([C@@H]1C=C(C)C(=O)O1)N(C)CC2
2. COc1cc2c(cc1OC)[C@@H]([C@H]1C=C(C)C(=O)O1)N(C(=O)OCc1ccccc1)CC2
3. O=C1C=C[C@H]([C@@H]2c3ccccc3CCN2C(=O)OCc2ccccc2)O1
4. CC1=C[C@H]([C@@H]2c3ccccc3CCN2C(=O)OCc2ccccc2)OC1=O
5. CN1CCc2cc3c(cc2[C@H]1[C@@H]1OC(=O)c2c1ccc1c2OCO1)OCO3
6. CC1=C[C@@H]([C@@H]2c3ccccc3CCN2C(=O)OCc2ccccc2)OC1=O

### Response
[-8, 60, 225, 208, -100, 130]

----------
- Tgt: GABA-A receptor; anion channel (Rattus norvegicus) (UniProt O09028+P15431+P18506+P18508+P19969+P20236+P23574+P23576+P28471+P28473+P30191+P62813+P63079+P63138+Q91ZM7+Q9ES14)
- Method summary: In vitro displacement of [3H]muscimol from Gamma-aminobutyric acid A receptor of rat brain membrane preparations at 100 uM
Task for the reader: assign each of the following molecules its reported Displacement.
One number for each entry, in %.

| Query smiles | Result value |
| --- | --- |
| CC1=C[C@H]([C@@H]2c3cc4c(cc3CCN2C)OCO4)OC1=O | 5 |
| COc1cc2c(cc1OC)[C@@H]([C@@H]1C=C(C)C(=O)O1)N(C(=O)OCc1ccccc1)CC2 | -1 |
| COc1cc2c(cc1OC)[C@@H]([C@H]1C=CC(=O)O1)N(C(=O)OCc1ccccc1)CC2 | 10 |
| COc1cc2c(cc1OC)[C@@H]([C@H]1C=C(C)C(=O)O1)N(C)CC2 | -1 |

Reported Displacement of "COc1cc2c(cc1OC)[C@@H]([C@H]1C=C(C)C(=O)O1)N(C(=O)OCc1ccccc1)CC2" : -23

----------
- Tgt: GABA-A receptor; alpha-1/beta-2/gamma-2 (Rattus norvegicus) (UniProt P18508+P62813+P63138)
- Method summary: Percent GABA current elicited in Xenopus laevis oocytes expressing rat GABA-A alpha-1-beta-2-gamma-2 subunits at 100 uM [(-)inhibition, (+)stimulation]
- Assay type: functional, cell-based
- Experimental conditions: Oocyte
Field: GABA current. Provide a value for each of the compounds that follow.
Numbers only, in %.

| Query smiles | Result value |
| --- | --- |
| O=C1CC[C@@H]([C@@H]2c3ccccc3CCN2C(=O)OCc2ccccc2)O1 | 351 |
| COc1cc2c(cc1OC)[C@@H]([C@H]1C=CC(=O)O1)N(C(=O)OCc1ccccc1)CC2 | 43 |
| COc1cc2c(cc1OC)[C@@H]([C@@H]1C=CC(=O)O1)N(C(=O)OCc1ccccc1)CC2 | 20 |
| CC1=C[C@H]([C@@H]2c3cc4c(cc3CCN2C)OCO4)OC1=O | -7 |

Field GABA current (entry "COc1cc2c(cc1OC)[C@@H]([C@@H]1C=C(C)C(=O)O1)N(C(=O)OCc1ccccc1)CC2" ) reads 24

----------
- Tgt: GABA-A receptor; anion channel
- Method summary: Displacement of [3H]flunitrazepam from GABA-A receptor of rat forebrain tissue
Property measured: pIC50
Give bare numbers, as −log10 of the molar value.

Guide cases for pIC50, answers given:
| Query smiles | Property measured | Result value |
| --- | --- | --- |
| O=C1CC[C@@H]([C@@H]2c3ccccc3CCN2C(=O)OCc2ccccc2)O1 | pIC50 | 6.80 |
| CC1=C[C@H]([C@@H]2c3ccccc3CCN2C(=O)OCc2ccccc2)OC1=O | pIC50 | 4.60 |

From here, focus on the item given below.
Field pIC50 (entry "CC1=C[C@@H]([C@@H]2c3ccccc3CCN2C(=O)OCc2ccccc2)OC1=O" ) reads 4.92

----------
- Tgt: GABA-A receptor; anion channel (Rattus norvegicus) (UniProt O09028+P15431+P18506+P18508+P19969+P20236+P23574+P23576+P28471+P28473+P30191+P62813+P63079+P63138+Q91ZM7+Q9ES14)
- Method summary: Displacement of [3H]flunitrazepam from GABA-A receptor of rat brain membrane preparations at 100 uM
Could you please report measured Displacement for the items listed next?
Could you give the number and then its unit, please?

Look over these answered cases.
| Query smiles | Displacement |
| --- | --- |
| COc1cc2c(cc1OC)[C@@H]([C@H]1C=CC(=O)O1)N(C(=O)OCc1ccccc1)CC2 | 51% |
| COc1cc2c(cc1OC)[C@@H]([C@@H]1C=C(C)C(=O)O1)N(C(=O)OCc1ccccc1)CC2 | 4% |
| CC1=C[C@H]([C@@H]2c3cc4c(cc3CCN2C)OCO4)OC1=O | 30% |
| COc1cc2c(cc1OC)[C@@H]([C@@H]1C=C(C)C(=O)O1)N(C)CC2 | 8% |
| COc1cc2c(cc1OC)[C@@H]([C@H]1C=C(C)C(=O)O1)N(C(=O)OCc1ccccc1)CC2 | 31% |
| CC1=C[C@@H]([C@@H]2c3cc4c(cc3CCN2C)OCO4)OC1=O | 21% |

Count: 3. Required value per item: Displacement.
1. CN1CCc2cc3c(cc2[C@H]1[C@@H]1OC(=O)c2c1ccc1c2OCO1)OCO3
2. COc1cc2c(cc1OC)[C@@H]([C@H]1C=C(C)C(=O)O1)N(C)CC2
3. COc1cc2c(cc1OC)[C@@H]([C@@H]1C=CC(=O)O1)N(C(=O)OCc1ccccc1)CC2

### Response
1: 7%; 2: 12%; 3: 15%
